study_system: UniProtKB P48730
procedure_details: CSNK1D assay (ADP-Glo, 1 μM ATP)
Assay type: biochemical
experimental_conditions: median, read-out: CSNK1D IC50 [mol/l] (median)
Give IC50 for every item shown.
One number for each entry, in nM.

Please review the following examples before continuing.
O=C(Cc1cnc2ccccc2n1)Nc1cc(-c2[nH]c3cccnc3c2-c2ccccn2)ccn1 ... 3.44
Cn1cc(CC(=O)Nc2cc(-c3[nH]c4cccnc4c3-c3ccccn3)ccn2)cn1 ... 11.1
Cn1cc(C(CC(F)F)C(=O)Nc2cc(-c3[nH]c4cccnc4c3-c3ccccn3)ccn2)cn1 (stereo not shown) ... 13.9

// switching to the query compound
Enquiry: Data request, read-out IC50, for O=C(Cc1cc(C2CC2)on1)Nc1cc(-c2[nH]c3cccnc3c2-c2ccccn2)ccn1
Return: 6.38

----------
Tested on: HCT 116 cells
procedure_details: HCT 116 cell proliferation assay, CTG
Assay type: cell-based
experimental_conditions: Homo sapiens; HCT 116, CTG, 96 h; median; read-out: 2D-PROLI HCT 116 CTG 96 h, IC50 - [mol/l] (median)
result_type: pIC50
Numbers only, as −log10 of the molar value.

O=C(Cc1ccno1)Nc1cc(-c2[nH]c3cccnc3c2-c2ccccn2)ccn1 ... 6.26
Cc1nc(CC(=O)Nc2cc(-c3[nH]c4cccnc4c3-c3ccccn3)ccn2)cs1 ... 6.44

Please give pIC50, item by item, for the list that follows.
1. Cc1nn(C)c(C)c1CC(=O)Nc1cc(-c2[nH]c3cccnc3c2-c2ccccn2)ccn1
2. Cn1cc(CC(=O)Nc2cc(-c3[nH]c4cccnc4c3-c3ccccn3)ccn2)cn1
3. Cc1ocnc1CC(=O)Nc1cc(-c2[nH]c3cccnc3c2-c2ccccn2)ccn1

Return:
1. 5.99
2. 5.44
3. 6.02

Please give pIC50, item by item, for the list that follows.
1. Cc1nn(C)cc1CC(=O)Nc1cc(-c2[nH]c3cccnc3c2-c2ccccn2)ccn1
2. O=C(Cc1ccns1)Nc1cc(-c2[nH]c3cccnc3c2-c2ccccn2)ccn1

Return:
1. 6.09
2. 6.45

----------
study_system: human CSNK1G3 (Homo sapiens (Human), UniProt Q9Y6M4)
Sequence (Q9Y6M4 whole entry): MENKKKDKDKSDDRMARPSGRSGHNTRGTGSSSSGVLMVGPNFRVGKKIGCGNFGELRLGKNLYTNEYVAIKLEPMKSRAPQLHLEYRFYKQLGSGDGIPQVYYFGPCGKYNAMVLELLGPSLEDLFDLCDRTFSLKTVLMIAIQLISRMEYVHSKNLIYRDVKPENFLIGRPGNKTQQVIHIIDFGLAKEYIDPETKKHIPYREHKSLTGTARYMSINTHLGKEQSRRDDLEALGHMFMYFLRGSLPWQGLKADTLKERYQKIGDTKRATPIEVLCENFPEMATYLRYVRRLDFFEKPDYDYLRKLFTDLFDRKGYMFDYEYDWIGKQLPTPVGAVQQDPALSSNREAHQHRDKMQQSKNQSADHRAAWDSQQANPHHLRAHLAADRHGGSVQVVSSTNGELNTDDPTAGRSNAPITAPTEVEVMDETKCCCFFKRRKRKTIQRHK
result_type: IC50 (nM)
Give bare numbers, in nM.

Cn1cc(CC(=O)Nc2cc(-c3[nH]c4cccnc4c3-c3ccccn3)ccn2)cn1 [Example 2] ... 102

Please give IC50, item by item, for the list that follows.
1. Cc1nn(C)cc1CC(=O)Nc1cc(-c2[nH]c3cccnc3c2-c2ccccn2)ccn1 [Example 9]
2. O=C(Cc1cc(C2CC2)on1)Nc1cc(-c2[nH]c3cccnc3c2-c2ccccn2)ccn1 [Example 27]
3. Cn1nc(CC(=O)Nc2cc(-c3[nH]c4cccnc4c3-c3ccccn3)ccn2)cc1C1CC1 [Example 29]

Return:
51.2
19.7
27.4

----------
procedure_details: Solubility assay (thermodynamic solubility)
Format: physicochemical
experimental_conditions: thermodynamic from solid, aqueous buffer, mean, read-out: Thermodynamic Solubility [mg/l] (mean)
result_type: solubility thermodynamic at 24 h (mg/L)
Give bare numbers, in mg/L.

Please review the following examples before continuing.
Cc1ncc(CC(=O)Nc2cc(-c3[nH]c4cccnc4c3-c3ccccn3)ccn2)o1 ... 26.3
Cc1noc(C)c1CC(=O)Nc1cc(-c2[nH]c3cccnc3c2-c2ccccn2)ccn1 ... 9.9

// switching to the query compound
Enquiry: Data request, read-out solubility thermodynamic at 24 h, for O=C(Cc1ccno1)Nc1cc(-c2[nH]c3cccnc3c2-c2ccccn2)ccn1
Return: 59.5

----------
procedure_details: Solubility assay (thermodynamic solubility)
Assay type: physicochemical
experimental_conditions: thermodynamic from solid, aqueous buffer, mean, read-out: Thermodynamic Solubility [mg/l] (mean)
result_type: solubility thermodynamic at 24 h (mg/L)
Numbers only, in mg/L.

O=C(Cc1ccn(CC(F)(F)F)n1)Nc1cc(-c2[nH]c3cccnc3c2-c2ccccn2)ccn1 [Example 20] ... 23.9
Cc1cc(CC(=O)Nc2cc(-c3[nH]c4cccnc4c3-c3ccccn3)ccn2)n(C)n1 [Example 14] ... 4.6
Cc1nc(CC(=O)Nc2cc(-c3[nH]c4cccnc4c3-c3ccccn3)ccn2)co1 [Example 25] ... 23.1

Please give solubility thermodynamic at 24 h, item by item, for the list that follows.
1. Cn1cc(C(CC(F)F)C(=O)Nc2cc(-c3[nH]c4cccnc4c3-c3ccccn3)ccn2)cn1 (centres unmarked) [Example 19]
2. Cn1cc(CC(=O)Nc2cc(-c3[nH]c4cccnc4c3-c3ccccn3)ccn2)cn1 [Example 2]
3. Cc1nn(C)c(C)c1CC(=O)Nc1cc(-c2[nH]c3cccnc3c2-c2ccccn2)ccn1 [Example 17]

Return:
[84, 85.2, 14.9]

----------
Tested on: HCT 116 cells
procedure_details: HCT 116 cell proliferation assay, CTG
Type: cell-based
experimental_conditions: Homo sapiens; HCT 116, CTG, 96 h; median; read-out: 2D-PROLI HCT 116 CTG 96 h, IC50 - [mol/l] (median)
result_type: pIC50
One number for each entry, as −log10 of the molar value.

Please give pIC50, item by item, for the list that follows.
1. O=C(Cc1cc2ccccn2n1)Nc1cc(-c2[nH]c3cccnc3c2-c2ccccn2)ccn1
2. Cc1cc(CC(=O)Nc2cc(-c3[nH]c4cccnc4c3-c3ccccn3)ccn2)on1

Return:
1. 6.77
2. 6.20

Please give pIC50, item by item, for the list that follows.
1. O=C(Cc1ccon1)Nc1cc(-c2[nH]c3cccnc3c2-c2ccccn2)ccn1
2. Cc1nc(CC(=O)Nc2cc(-c3[nH]c4cccnc4c3-c3ccccn3)ccn2)co1

Return:
[6.07, 6.01]

----------
Quick record: IC50, human CSNK1D (Homo sapiens (Human), UniProt P48730).
Numbers only, in nM.

O=C(Cc1cc2ccccn2n1)Nc1cc(-c2[nH]c3cccnc3c2-c2ccccn2)ccn1 ... 3.75
O=C(Cc1ccon1)Nc1cc(-c2[nH]c3cccnc3c2-c2ccccn2)ccn1 ... 5.6
Cc1cc(CC(=O)Nc2cc(-c3[nH]c4cccnc4c3-c3ccccn3)ccn2)nn1C ... 6.57
O=C(Nc1cc(-c2[nH]c3nccnc3c2-c2ccccn2)ccn1)[C@@H](CC(F)F)c1ccc(F)cc1 [Example C1, reference compound] ... 3.92
O=C(Nc1cc(-c2[nH]c3ccc(F)nc3c2-c2ccccn2)ccn1)[C@@H](CC(F)F)c1ccc(F)cc1 [Example C2, reference compound] ... 2.26

Please give IC50, item by item, for the list that follows.
1. O=C(Nc1cc(-c2[nH]c3c(OCC(F)F)ncnc3c2-c2ccccn2)ccn1)[C@@H](CC(F)F)c1ccc(F)cc1 [Example C3, reference compound]
2. Cc1nc(CC(=O)Nc2cc(-c3[nH]c4cccnc4c3-c3ccccn3)ccn2)co1
3. O=C(Cc1ccn(CC(F)(F)F)n1)Nc1cc(-c2[nH]c3cccnc3c2-c2ccccn2)ccn1
4. O=C(Cc1ccno1)Nc1cc(-c2[nH]c3cccnc3c2-c2ccccn2)ccn1
5. Cn1nc(CC(=O)Nc2cc(-c3[nH]c4cccnc4c3-c3ccccn3)ccn2)cc1C(F)(F)F
6. Cc1ncc(CC(=O)Nc2cc(-c3[nH]c4cccnc4c3-c3ccccn3)ccn2)o1
7. O=C(Cc1cnc2ccccn12)Nc1cc(-c2[nH]c3cccnc3c2-c2ccccn2)ccn1

Return:
[3.27, 8.44, 4.93, 4.68, 4.88, 5.37, 11.4]

Please give IC50, item by item, for the list that follows.
1. Cc1nn(C)c(C)c1CC(=O)Nc1cc(-c2[nH]c3cccnc3c2-c2ccccn2)ccn1
2. Cc1cc(CC(=O)Nc2cc(-c3[nH]c4cccnc4c3-c3ccccn3)ccn2)n(C)n1

Return:
1: 6.87; 2: 4.88

----------
Give Thermodynamic Solubility [mg/l] (mean) for every item shown.
procedure_details: Solubility assay (thermodynamic solubility)
Assay type: physicochemical
experimental_conditions: aqueous buffer, 24 h
One number for each entry, in mg/L.

Please review the following examples before continuing.
O=C(Nc1cc(-c2[nH]c3ccc(F)nc3c2-c2ccccn2)ccn1)[C@@H](CC(F)F)c1ccc(F)cc1 [Example C2, reference compound] ... 0.20
O=C(Nc1cc(-c2[nH]c3nccnc3c2-c2ccccn2)ccn1)[C@@H](CC(F)F)c1ccc(F)cc1 [Example C1, reference compound] ... 9.60

// switching to the query molecule
Enquiry: Data request, read-out Thermodynamic Solubility [mg/l] (mean), for O=C(Cc1ccc(F)cc1)Nc1cc(-c2[nH]c3ccc(F)nc3c2-c2ccccn2)ccn1 [Example C4, reference compound]
Return: 2.35

----------
procedure_details: Solubility assay (thermodynamic solubility)
Assay type: physicochemical
experimental_conditions: thermodynamic from solid, aqueous buffer, mean, read-out: Thermodynamic Solubility [mg/l] (mean)
Description: Solubility of solid compound in aqueous buffer was determined by an equilibrium shake flask method. […] The solution was centrifuged to remove the insoluble fraction and the concentration of the compound in solution was determined by HPLC-UV using a standard calibration curve (Kerns, E. H. et al., Solubility Methods in: Drug-like Properties: Concepts, Structure Design and Methods, p 276-286. Burlington, MA: Academic Press 2008).
Give solubility thermodynamic at 24 h for every item shown.

Please review the following examples before continuing.
O=C(Cc1cc2ccccn2n1)Nc1cc(-c2[nH]c3cccnc3c2-c2ccccn2)ccn1 ... 0.8 mg/L
O=C(Cc1cnc2ccccn12)Nc1cc(-c2[nH]c3cccnc3c2-c2ccccn2)ccn1 ... 9.6 mg/L
Cc1nn(C)cc1CC(=O)Nc1cc(-c2[nH]c3cccnc3c2-c2ccccn2)ccn1 ... 1.3 mg/L
O=C(Cc1cc(C2CC2)on1)Nc1cc(-c2[nH]c3cccnc3c2-c2ccccn2)ccn1 ... < 0.1 mg/L
Cc1ocnc1CC(=O)Nc1cc(-c2[nH]c3cccnc3c2-c2ccccn2)ccn1 ... 8.4 mg/L

Please give solubility thermodynamic at 24 h, item by item, for the list that follows.
1. O=C(Cc1ccon1)Nc1cc(-c2[nH]c3cccnc3c2-c2ccccn2)ccn1
2. O=C(Cc1ccns1)Nc1cc(-c2[nH]c3cccnc3c2-c2ccccn2)ccn1
3. Cn1cnc(CC(=O)Nc2cc(-c3[nH]c4cccnc4c3-c3ccccn3)ccn2)c1

Return:
15.4 mg/L
12.6 mg/L
> 409 mg/L
